- target_or_system: OGT (Homo sapiens, UniProt O15294)
- Construct: hOGT4.5 construct (spanning residues 313-1031 based on the numbering of the full length human protein); made in house
- Sequence (O15294 323-1041): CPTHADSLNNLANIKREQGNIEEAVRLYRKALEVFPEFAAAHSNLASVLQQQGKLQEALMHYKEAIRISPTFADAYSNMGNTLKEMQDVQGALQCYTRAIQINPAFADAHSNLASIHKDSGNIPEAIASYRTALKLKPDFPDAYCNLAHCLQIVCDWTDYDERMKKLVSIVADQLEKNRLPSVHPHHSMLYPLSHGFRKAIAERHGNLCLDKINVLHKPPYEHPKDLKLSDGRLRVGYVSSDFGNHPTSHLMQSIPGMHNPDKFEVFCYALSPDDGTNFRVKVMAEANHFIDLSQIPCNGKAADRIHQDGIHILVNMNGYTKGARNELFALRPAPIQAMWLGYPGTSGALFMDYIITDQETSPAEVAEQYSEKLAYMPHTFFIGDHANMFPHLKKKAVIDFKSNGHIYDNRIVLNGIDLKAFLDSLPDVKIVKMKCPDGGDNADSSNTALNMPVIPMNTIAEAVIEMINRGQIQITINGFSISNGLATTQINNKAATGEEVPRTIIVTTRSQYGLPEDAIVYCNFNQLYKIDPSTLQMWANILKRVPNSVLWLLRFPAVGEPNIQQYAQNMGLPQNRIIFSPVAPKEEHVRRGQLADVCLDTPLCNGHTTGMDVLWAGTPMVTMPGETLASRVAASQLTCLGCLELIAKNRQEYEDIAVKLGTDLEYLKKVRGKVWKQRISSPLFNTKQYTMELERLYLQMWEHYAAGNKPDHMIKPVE
- assay_notes: IC50 assay, OGT peptide-capture assay
- Format: biochemical
- details: read-out: apparent IC50
pIC50: −log10 of the molar value.
quantity_kind: pIC50

- COc1ccc(OC(=O)n2c(=O)oc3cc(C(C)=O)ccc32)cc1: 5.80

====

- target_or_system: OGT (Homo sapiens, UniProt O15294)
- Construct: hOGT4.5 construct (spanning residues 313-1031 based on the numbering of the full length human protein); made in house
- assay_notes: IC50 assay, OGT peptide-capture assay
- Assay type: biochemical
- details: peptide-capture assay, different concentrations of each compound, read-out: IC50 Values
Each entry below lists one item and its recorded IC50 value.
quantity_kind: IC50 (µM)

* COc1ccc(OC(=S)n2c(=O)oc3cc(C(C)=O)ccc32)cc1 | 14
* COc1ccc(OC(=O)n2c(=O)oc3cc(C(C)=O)ccc32)cc1 | 2
* O=C(Oc1ccccc1)n1c(=O)oc2cc([N+](=O)[O-])ccc21 | 60
* COc1ccc(OC(=O)n2c(=O)oc3ccc(Cl)cc32)cc1 | 18
